Tested on: Leishmania (Leishmania) infantum promastigotes
assayOverview: Inhibition of promastigote growth (MTT colorimetric method)
Assay type: cell-based
appliedConditions: Leishmania, 72 h, promastigotes, MTT
# IC50 values compiled below

| compound | IC50 |
| --- | --- |
| O=C(/C=C/c1ccccc1)NCc1ccc(Cl)cc1 | 81.8 µg/mL |

Any idea what IC50 came out for O=C(C=Cc1ccccc1)OCc1ccc(O)cc1 on Leishmania (Leishmania) infantum promastigotes?
92.7 µg/mL

Any idea what IC50 came out for Cc1ccc(COC(=O)C=Cc2ccccc2)cc1 on Leishmania (Leishmania) infantum promastigotes?
25 µg/mL

Any idea what IC50 came out for COc1ccc(CNC(=O)/C=C/c2ccccc2)cc1 on Leishmania (Leishmania) infantum promastigotes?
102 µg/mL

Any idea what IC50 came out for CC(C)CCOC(=O)/C=C/c1ccccc1 on Leishmania (Leishmania) infantum promastigotes?
> 400 µg/mL

###

System: Leishmania (Leishmania) infantum promastigotes
assayOverview: Inhibition of promastigote growth (MTT colorimetric method)
Format: cell-based
appliedConditions: Leishmania, 72 h, promastigotes, MTT
measurementName: IC50 (µg/mL)
Express the result in µg/mL but write the number alone.

What does the data say about its IC50? Entry: O=C(/C=C/c1ccccc1)NCc1ccc2c(c1)OCO2 [Compound 34]
43.6

What does the data say about its IC50? Entry: C[C@@H]1[C@H](O)[C@@H](C)/C=C/C=C/C=C/C=C/C=C/C=C/C=C/[C@H](O[C@@H]2O[C@H](C)[C@@H](O)[C@H](N)[C@@H]2O)C[C@@H]2O[C@](O)(C[C@@H](O)C[C@@H](O)[C@H](O)CC[C@@H](O)C[C@@H](O)CC(=O)O[C@H]1C)C[C@H](O)[C@H]2C(=O)O [Amphotericin B, reference compound]
2.91

###

# pIC50 values compiled below
System: Leishmania (Leishmania) infantum promastigotes
assayOverview: Inhibition of promastigote growth (MTT colorimetric method)
Assay type: cell-based
appliedConditions: Leishmania, 72 h, promastigotes, MTT; also called MIC
Bear in mind: pIC50 is minus log10 of a mol/L concentration; give just that figure.

| compound | assayTarget | obsValue |
| --- | --- | --- |
| CCCCCCCCCCOC(=O)/C=C/c1ccccc1 [Compound 9] | Leishmania (Leishmania) infantum promastigotes | 3.60 |
| O=C(/C=C/c1ccccc1)OCc1ccc2c(c1)OCO2 [Compound 15, piperonyl cinnamate] | Leishmania (Leishmania) infantum promastigotes | 4.37 |
| CCOC(=O)/C=C/c1ccccc1 [Compound 3, Ethyl cinnamate] | Leishmania (Leishmania) infantum promastigotes | 3.09 |
| O=C(C=Cc1ccccc1)OCc1ccc(O)cc1 [Compound 12] | Leishmania (Leishmania) infantum promastigotes | 3.40 |

Then this compound:
What does the data say about its pIC50? Entry: O=C(/C=C/c1ccccc1)NCc1ccc(Cl)cc1 [Compound 29]
3.52

###

Test system: Leishmania (Leishmania) infantum promastigotes
assayOverview: Inhibition of promastigote growth (MTT colorimetric method)
Type: cell-based
appliedConditions: Leishmania, 72 h, promastigotes, MTT; also called MIC
# IC50 values compiled below
Express the result in µM but write the number alone.

What does the data say about its IC50? Entry: O=C(/C=C/c1ccccc1)NCc1ccc2c(c1)OCO2
155

What does the data say about its IC50? Entry: COc1ccc(CNC(=O)/C=C/c2ccccc2)cc1
383

What does the data say about its IC50? Entry: O=C(/C=C/c1ccccc1)OCc1ccc(Cl)cc1
252

What does the data say about its IC50? Entry: CCCOC(=O)/C=C/c1ccccc1
254

What does the data say about its IC50? Entry: Cc1ccc(COC(=O)C=Cc2ccccc2)cc1
125

What does the data say about its IC50? Entry: O=C(/C=C/c1ccccc1)OCc1ccccc1 [Compound 10, benzyl cinnamate]
523

What does the data say about its IC50? Entry: O=C(/C=C/c1ccccc1)NCc1ccc(O)cc1 [Compound 30, 4-Hydroxybenzylcinnamamide]
411

What does the data say about its IC50? Entry: Cc1ccc(CNC(=O)/C=C/c2ccccc2)cc1
800

What does the data say about its IC50? Entry: CCCCOC(=O)/C=C/c1ccccc1
178

What does the data say about its IC50? Entry: C[C@@H]1[C@H](O)[C@@H](C)/C=C/C=C/C=C/C=C/C=C/C=C/C=C/[C@H](O[C@@H]2O[C@H](C)[C@@H](O)[C@H](N)[C@@H]2O)C[C@@H]2O[C@](O)(C[C@@H](O)C[C@@H](O)[C@H](O)CC[C@@H](O)C[C@@H](O)CC(=O)O[C@H]1C)C[C@H](O)[C@H]2C(=O)O [Amphotericin B, reference compound]
3.14

What does the data say about its IC50? Entry: CC(C)c1ccc(CNC(=O)C=Cc2ccccc2)cc1 [Compound 32, N-(4-isopropylbenzyl)cinnamamide]
33.7

What does the data say about its IC50? Entry: CCCCCOC(=O)/C=C/c1ccccc1
369
